- TESTED_ON: Single-stranded DNA-binding protein (Escherichia coli (strain K12)) (UniProt P0AGE0)
- ASSAY_EXPLANATION: SSB-ssDNA binding inhibitors – biochemical, fluorescence polarization, NIH Clinical Collection, counter-screen for HCV NS3 helicase inhibitor project (AID 743271)
- RUN_CONDITIONS: E. coli SSB-DNA binding, concentration not given here
Activity calls are given as the source filed them. No stated cut-off is given here; in the data, active means inhibition above about 28%; inactive means the rest.
// one of active, inactive, no free text

QUERY: GET /call?item= "O=C(CCNNC(=O)c1ccncc1)NCc1ccccc1" returns the recorded outcome of this test.
RESULT: inactive

QUERY: GET /call?item= "CCCc1nc(C)c2c(=O)[nH]c(-c3cc(S(=O)(=O)N4CCN(CC)CC4)ccc3OCC)nn12" returns the recorded outcome of this test.
RESULT: inactive

QUERY: GET /call?item= "CN(CCCN1c2ccccc2CCc2ccccc21)CC(=O)c1ccc(Cl)cc1" returns the recorded outcome of this test.
RESULT: inactive

QUERY: GET /call?item= "Nc1ccc(O)c(C(=O)O)c1" returns the recorded outcome of this test.
RESULT: inactive

QUERY: GET /call?item= "C[C@@H]1CN(CCCn2c3ccccc3c3ccccc32)C[C@H](C)N1" returns the recorded outcome of this test.
RESULT: inactive

QUERY: GET /call?item= "Clc1ccc2nsnc2c1NC1=NCCN1" returns the recorded outcome of this test.
RESULT: inactive

QUERY: GET /call?item= CC[N+](C)(CC)CCOC(=O)C(O)(c1ccccc1)C1CCCCC1 (configuration not stated) returns the recorded outcome of this test.
RESULT: inactive

QUERY: GET /call?item= "O=c1c(-c2ccccc2)c1-c1ccccc1" returns the recorded outcome of this test.
RESULT: inactive

QUERY: GET /call?item= "NC1CCN(c2cccc(Cl)n2)CC1" returns the recorded outcome of this test.
RESULT: active

QUERY: GET /call?item= "Cc1ncc([N+](=O)[O-])n1CCO" returns the recorded outcome of this test.
RESULT: inactive

QUERY: GET /call?item= "O=C1c2cccc3c2[C@H](CCC3)CN1[C@@H]1CN2CCC1CC2" returns the recorded outcome of this test.
RESULT: inactive

QUERY: GET /call?item= "COc1cc(C)c(Cc2cnc(N)nc2N)cc1OC" returns the recorded outcome of this test.
RESULT: inactive
